# System: Saccharomyces cerevisiae
# Assay text: protein stability index of tFT-peptide fusion (C-terminal peptide) (PSI (0-1 scale)); higher = more stable (slower turnover)
# Details: genetic background: das1 deletion; temperature: 37 C
1 means recorded protein stability index is 0.6 or above; 0 means it is below 0.6.

[
  {
    "Biosequence": "HLKKKLKIRLIN",
    "Group label": 1
  }
]

Query: hey, is protein stability index for this one >= 0.6? LFSCTQLLPITA
Result: 0

Query: Is the recorded value of protein stability index equal to or greater than 0.6 for this sequence? VVVFGWIGYLYL
Result: 0

Query: Hello, I need to know if GDINRNTRYLEK has measured protein stability index not below 0.6. Thanks!
Result: 1

Query: Hello, I need to know if SIFWWWLVFILG has measured protein stability index not below 0.6. Thanks!
Result: 0

Query: Check if protein stability index >= 0.6 (inclusive). Item: GLFLLWWLGWLV
Result: 1

Query: Record VCILLVAWCLMG ; criterion: protein stability index no lower than 0.6. Met?
Result: 0

Query: Please check the record GVCSFFVCVFFV and state if its protein stability index is at or above 0.6.
Result: 0

Query: Tell me whether protein stability index is at least 0.6 here: LFPVFFPLFAPA
Result: 0

Query: Is it the case that IIFACFYGVFLM has protein stability index reaching or exceeding 0.6?
Result: 0

Query: Check if protein stability index >= 0.6 (inclusive). Item: PFFLLAGITVAC
Result: 0

Query: Can FFYRFQDLPRIC be said to have protein stability index at or above 0.6?
Result: 1

Query: # bool: protein stability index of GCGFSFFHIVVL >= 0.6
Result: 0

---

# Tested on: Saccharomyces cerevisiae
# Assay text: protein stability index of tFT-peptide fusion in wild type (PSI (0-1 scale)); higher = more stable (slower turnover)
# Details: genetic background: wild type
Measure: protein stability index
Number only, no unit.

Study these solved cases before continuing.
[
  {
    "Biosequence": "ELIQPLPVQFLN",
    "protein stability index": 0.0675
  },
  {
    "Biosequence": "PSMRWTFRYWVN",
    "protein stability index": 0.0877
  },
  {
    "Biosequence": "CLPSLPILLFFR",
    "protein stability index": 0.0469
  },
  {
    "Biosequence": "RVTRLDAIYVRI",
    "protein stability index": 0.469
  }
]

Query: # input sequence: LVVYLSIVACIN ; wanted: its protein stability index
Result: 0.0584

Query: Fill in: protein stability index of RVTRVDAIYFRI is ___
Result: 0.442

Query: Suppose we examine the sequence CTSCGYKFRTNNI ; what protein stability index value has been reported?
Result: 0.716

---

# Tested on: Saccharomyces cerevisiae
# Assay text: protein stability index of tFT-peptide fusion (C-terminal peptide) (PSI (0-1 scale)); higher = more stable (slower turnover)
# Details: genetic background: wild type; temperature: 30 C
Measure: protein stability index
Form rule: numeric answer, no unit written next to it.

Some sequences with recorded protein stability index:
[
  {
    "Biosequence": "FFGWYFCFSGVS",
    "protein stability index": 0.598
  },
  {
    "Biosequence": "SPPPHPVHPVPL",
    "protein stability index": 0.611
  },
  {
    "Biosequence": "PPLPPTLSSIVI",
    "protein stability index": 0.599
  },
  {
    "Biosequence": "LCFGGLVLFSFG",
    "protein stability index": 0.601
  }
]

Query: Enter reported protein stability index observed with Saccharomyces cerevisiae for CSRTSKKMSIGG
Result: 0.613

---

# Test system: Saccharomyces cerevisiae
# Assay text: protein stability index of tFT-peptide fusion in deletion strain of DAS1 (PSI (0-1 scale)); higher = more stable (slower turnover)
Measure: protein stability index
Write the number on its own, no unit after it.

[
  {
    "Biosequence": "VYGAVGGWRLVG",
    "Assay value": 0.677
  },
  {
    "Biosequence": "FSIRWTFRYWVN",
    "Assay value": 0.335
  }
]

Now for a further sequence.
Query: I'd like to know its protein stability index. The sequence in question is ARWRVGLYRGAS
Result: 0.641

---

# System: Saccharomyces cerevisiae
# Assay text: protein stability index of tFT-peptide fusion (C-terminal peptide) (PSI (0-1 scale)); higher = more stable (slower turnover)
# Details: genetic background: wild type; temperature: 30 C
Measure: protein stability index
Please reply with the value in numeric form only.

Worked cases, answers included:
[
  {
    "Biosequence": "PPPTPSPPPLPP",
    "protein stability index": 0.575
  },
  {
    "Biosequence": "FRYSSLPRPLVF",
    "protein stability index": 0.589
  }
]

Query: Which protein stability index value is on record for GAGAHVPCSGRQ ?
Result: 0.675

Query: Form field: reported protein stability index of KTKKENGRGEKN
Result: 0.697

Query: Which protein stability index value is on record for KQKNKTNKKNTK ?
Result: 0.661

Query: I'd like to know its protein stability index. The sequence in question is AGVRCPLFWLVC
Result: 0.156

Query: Give its protein stability index value. Item: PPSPPPPPRFLP
Result: 0.662

Query: Please report the recorded protein stability index for VLTGFTGSAIIG .
Result: 0.682

Query: protein stability index; subject: PASPPSPLLLSL
Result: 0.74

Query: Recorded protein stability index of CLATAMARSQRE , please.
Result: 0.683

---

Collected protein stability index values appear next to each entry.
# Test system: Saccharomyces cerevisiae
# Assay text: protein stability index of tFT-peptide fusion (C-terminal peptide) (PSI (0-1 scale)); higher = more stable (slower turnover)
# Details: genetic background: das1 deletion; temperature: 37 C
Form rule: numeric answer, no unit written next to it.

Before answering, review these 8 worked examples.
[
  {
    "Biosequence": "TSFLHLFVAAII",
    "protein stability index": 0.593
  },
  {
    "Biosequence": "LGRFHLACLLFL",
    "protein stability index": 0.611
  },
  {
    "Biosequence": "VLVTFFIRSGVS",
    "protein stability index": 0.536
  },
  {
    "Biosequence": "FFLFFLSFGCFL",
    "protein stability index": 0.539
  },
  {
    "Biosequence": "PPPPPPPFLFFL",
    "protein stability index": 0.747
  },
  {
    "Biosequence": "SIIRHLFHPSST",
    "protein stability index": 0.727
  },
  {
    "Biosequence": "YILLRWVNLSCL",
    "protein stability index": 0.645
  },
  {
    "Biosequence": "FFLVLWSSLLSP",
    "protein stability index": 0.572
  }
]

Query: What value of protein stability index has been reported for the following sequence? SSFPGPPLPPDP
Result: 0.731

Query: Give the measured protein stability index of GLCLFLIGVFSV .
Result: 0.439

Query: Which value of protein stability index has been reported for TFRVLAFFCRVV in the records?
Result: 0.616

Query: What protein stability index value was documented for this sequence, GFGRRGQFGGTG ?
Result: 0.801

Query: Please look up its protein stability index: FFLDRLVIRLIA
Result: 0.383

Query: Value lookup for protein stability index; key = FLAWSVGILCRV
Result: 0.351

Query: What value of measured protein stability index is listed for FLRLSFLIFPLH ?
Result: 0.583

Query: # query: protein stability index of entry LFFPLPGILSFF
Result: 0.778

Query: Sample CFPFYVSCLLVL — what was its protein stability index?
Result: 0.405

---

# Tested on: Saccharomyces cerevisiae
# Assay text: protein stability index of tFT-peptide fusion (C-terminal peptide) (PSI (0-1 scale)); higher = more stable (slower turnover)
# Details: genetic background: wild type; temperature: 30 C
Decide using protein stability index: a value greater than or equal to 0.7 is fulfilled, a smaller one is not fulfilled.

Would you please look over these solved cases?
[
  {
    "Biosequence": "SCEERVGEKVMG",
    "Group label": "not fulfilled"
  },
  {
    "Biosequence": "RREGWYTNRERG",
    "Group label": "not fulfilled"
  },
  {
    "Biosequence": "TFFSAPLLPSIP",
    "Group label": "fulfilled"
  },
  {
    "Biosequence": "LSLFLAWSLFFL",
    "Group label": "not fulfilled"
  },
  {
    "Biosequence": "GVAWGAGVGMMW",
    "Group label": "fulfilled"
  }
]

Query: Dear colleague, could you confirm whether LWGVVVGELGSC has protein stability index at or above 0.7?
Result: fulfilled

Query: Given the entry RFFVLSFFFLVS , answer whether its protein stability index meets or surpasses 0.7.
Result: not fulfilled

Query: Reported protein stability index reaches at least 0.7 for ELVISTGRLQKS ?
Result: not fulfilled
